Measured inhibition values are reported for all entries that follow.
experimental target: Casein kinase I isoform gamma-3 (Homo sapiens);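 note: mean inhibition of CK1-g3, GSK PKIS screen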
stated conditions: at 1 µM
Expressed in %, but write only the number.

Illustrative cases are given below, each with its answer.
N#Cc1c(NC(=O)c2ccccc2F)sc2c1CCCC2
-0.42
CCOc1nccc2c1nc(-c1nonc1N)n2CC
0.56
Cc1ccc(NC(=O)CC2CC2)cc1-c1ccc(C(=O)NCC2CC2)cc1
2.08

Which inhibition is listed for "Cc1ccc2c(-c3ccnc(Nc4cccc(C(F)(F)F)c4)n3)c(-c3ccccc3)nn2n1" ? 24.8

Continue with "CCS(=O)(=O)c1ccc(OC)c(Nc2ncc(-c3cccc(OC)c3)o2)c1" 5.62

"CN(C)CCCn1c(-c2nonc2N)nc2cnccc21" , same question. 3.26

Lookup "Cc1cc(-c2ccccn2)cc(C)c1/C=C/c1cncc(-c2nn[nH]n2)c1" 4.69

Also, "CC(C)c1ccc2c(c1)NC(=O)/C2=N/Nc1ccc(S(N)(=O)=O)cc1" please. 0.02

Check "Cc1ccc2c(c1)/C(=N/Nc1ccc(S(N)(=O)=O)cc1)C(=O)N2" too. -0.55

Moving on to "FC(F)(F)c1ccc(-c2nn3ncccc3c2-c2ccnc(Nc3ccc4c(c3)OCCO4)n2)cc1" 1.72

* * *

Listed molecules paired with reported inhibition
experimental target: Protein kinase C beta type (Homo sapiens);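 note: GSK PKIS screen, average inhibition of the PKC-beta2 splice variant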
stated conditions: at 1 µM
Description: GSK_PKIS: PKC-beta2 (splice variant) mean inhibition at 1 uM [Nanosyn]
// return numeric value only (unit: %, not printed)

Examples with their reported inhibition follow.
ON=C1CCc2cc(-c3nc(C4CCNCC4)[nH]c3-c3ccncc3)ccc21
7.96
Cc1nc(-c2ccccc2)n2nc(NCCCN3CCOCC3)ncc12
2.05

Reported inhibition, molecule "CC(C)c1ccc2c(c1)NC(=O)/C2=N/Nc1ccc(S(N)(=O)=O)cc1" : ____ 0.73

Another molecule: "COC(=O)Nc1nc2cc(Oc3ccc(NC(=O)Nc4cccc(Br)c4)cc3)ccc2[nH]1" 2.06

* * *

experimental target: Sphingosine kinase 2 (Homo sapiens) (UniProt Q9NRA0)
Sequence (Q9NRA0 whole entry): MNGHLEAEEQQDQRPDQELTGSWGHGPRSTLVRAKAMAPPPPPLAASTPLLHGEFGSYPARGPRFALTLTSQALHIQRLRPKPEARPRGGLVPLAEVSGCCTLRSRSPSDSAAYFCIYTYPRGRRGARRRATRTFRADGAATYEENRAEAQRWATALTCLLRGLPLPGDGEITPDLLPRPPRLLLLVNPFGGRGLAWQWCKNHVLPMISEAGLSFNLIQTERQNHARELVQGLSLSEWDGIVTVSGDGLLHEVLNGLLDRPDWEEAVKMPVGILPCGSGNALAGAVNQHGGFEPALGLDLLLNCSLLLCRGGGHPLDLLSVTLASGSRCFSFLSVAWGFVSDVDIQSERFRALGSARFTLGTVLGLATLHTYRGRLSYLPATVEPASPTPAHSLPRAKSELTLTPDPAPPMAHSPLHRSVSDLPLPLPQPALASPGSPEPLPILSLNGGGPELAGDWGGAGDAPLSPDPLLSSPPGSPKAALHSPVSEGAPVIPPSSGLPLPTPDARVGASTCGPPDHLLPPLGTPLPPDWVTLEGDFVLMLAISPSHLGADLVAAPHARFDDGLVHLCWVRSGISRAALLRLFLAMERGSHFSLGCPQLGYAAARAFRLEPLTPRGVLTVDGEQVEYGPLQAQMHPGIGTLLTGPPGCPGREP
stated conditions: at 1 µM
Description: GSK_PKIS: SPHK2 mean inhibition at 1 uM [Nanosyn]
Below, each entry is listed with its recorded inhibition.
Answer in %, number only, no unit symbol.

These recorded examples may help you get a feel for the data.
CCS(=O)(=O)c1ccc(OC)c(Nc2ncc(-c3cccc(OC)c3)o2)c1
-2
CCOc1nccc2c1nc(-c1nonc1N)n2CC
0.06
COC(=O)c1ccc2c(c1)C(=Cc1cc(Br)c(O)c(Br)c1)C(=O)N2
-0.45

Field request: inhibition | item: "Cc1cc(-c2ccccn2)cc(C)c1/C=C/c1cncc(-c2nn[nH]n2)c1" 0

Now the molecule "COc1cc2ncnc(Nc3ccc4c(cnn4Cc4ccccc4)c3)c2cc1OC" 0.14

# iterate: "COc1ccc(-c2nn3ncccc3c2-c2ccnc(Nc3cccc(C(F)(F)F)c3)n2)cc1" -0.08

Likewise for "Oc1cccc(-c2nc(-c3ccccc3)[nH]c2-c2ccncc2)c1" ? -1.65

Can you handle "COC(=O)Nc1nc2cc(Oc3ccc(NC(=O)Nc4cccc(Br)c4)cc3)ccc2[nH]1" next? 1.73

* * *

experimental target: Serine/threonine-protein kinase Chk2 (Homo sapiens) (UniProt O96017)
Sequence (O96017 whole entry): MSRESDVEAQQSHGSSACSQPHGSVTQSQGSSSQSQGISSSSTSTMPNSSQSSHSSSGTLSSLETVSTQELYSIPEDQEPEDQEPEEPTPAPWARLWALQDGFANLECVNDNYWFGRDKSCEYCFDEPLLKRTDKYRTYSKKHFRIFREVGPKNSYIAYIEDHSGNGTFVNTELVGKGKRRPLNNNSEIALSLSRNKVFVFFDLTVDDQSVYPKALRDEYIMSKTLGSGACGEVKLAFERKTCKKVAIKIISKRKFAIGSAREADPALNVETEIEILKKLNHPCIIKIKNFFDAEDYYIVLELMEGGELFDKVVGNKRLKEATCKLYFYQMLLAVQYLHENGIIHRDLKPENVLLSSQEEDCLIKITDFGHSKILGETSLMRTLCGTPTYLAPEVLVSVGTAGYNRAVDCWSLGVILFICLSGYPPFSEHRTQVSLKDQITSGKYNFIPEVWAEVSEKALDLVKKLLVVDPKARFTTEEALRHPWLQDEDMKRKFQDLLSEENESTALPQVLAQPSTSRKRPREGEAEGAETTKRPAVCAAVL
stated conditions: at 0.1 µM
Description: GSK_PKIS: CHEK2 mean inhibition at 0.1 uM [Nanosyn]
This listing pairs molecules with measured inhibition.
Dear colleague, please return just the value in %, with no unit written.

See these solved cases before continuing.
Cc1cc(Cl)cc2c1NC(=O)C2=NNc1ccc(S(N)(=O)=O)cc1
1.38
c1ccc(Cc2nc3ccc(Nc4ncnc5ccccc45)cc3[nH]2)cc1
1.71
CCOc1nccc2c1nc(-c1nonc1N)n2CC
2.06
CN(c1ccc(NC(=O)Nc2ccc(OC(F)(F)F)cc2)cc1)c1ccnc(Nc2cccc(S(N)(=O)=O)c2)n1
5.43
Nc1nccc(-c2c(-c3ccc(F)cc3)ncn2CCCN2CCOCC2)n1
1.76
COc1cc2ncnc(Nc3ccc4c(cnn4Cc4ccccc4)c3)c2cc1OC
10.7
COc1cc2ncn(-c3cc(OCc4ccccc4S(C)(=O)=O)c(C#N)s3)c2cc1OC
10
NS(=O)(=O)c1ccc(Nc2cc(-c3cccc(O)c3)n[nH]2)cc1
3.04
COC(=O)c1cncc(/C=C/c2c(C)cc(O)cc2C)c1
2.38
Cc1ccc2c(-c3ccnc(Nc4ccc5c(c4)OCCO5)n3)c(-c3ccc(C(F)(F)F)cc3)nn2n1
-0.69

For the molecule shown here, "CC(C)c1ccc2c(c1)NC(=O)/C2=N/Nc1ccc(S(N)(=O)=O)cc1" , give the reported inhibition. 0.32

Same read-out for "CN1CCN(C(=O)c2ccc(NC(=O)Nc3ccc(N(C)c4ccnc(Nc5ccc(CS(C)(=O)=O)cc5)n4)cc3)cc2)CC1" ? 5.54

Field entry: "CCn1c(-c2nonc2N)nc2ccc(F)cc21" 3.29

Lookup "Cc1ccc2c(-c3ccnc(Nc4cccc(C(F)(F)F)c4)n3)c(-c3ccccc3)nn2n1" -3.6

Repeat with "Nc1nccc(-c2c(-c3ccc(F)cc3)nn3cc(C(F)(F)F)ccc23)n1" 0.02

// next record "Nc1ccc(C#Cc2cncnc2Nc2ccc(OCc3cccc(F)c3)c(Cl)c2)cc1" 1.8

Would you mind doing "CN(C)CCCn1c(-c2nonc2N)nc2cnccc21" as well? 2.39

The origin of these recorded values is ChEMBL document CHEMBL1961873.
